Data provenance: patent US20190142963A1

Target: T1, human Klotho β (human, UniProt Q86Z14 1-1044)
T1 sequence (looked up): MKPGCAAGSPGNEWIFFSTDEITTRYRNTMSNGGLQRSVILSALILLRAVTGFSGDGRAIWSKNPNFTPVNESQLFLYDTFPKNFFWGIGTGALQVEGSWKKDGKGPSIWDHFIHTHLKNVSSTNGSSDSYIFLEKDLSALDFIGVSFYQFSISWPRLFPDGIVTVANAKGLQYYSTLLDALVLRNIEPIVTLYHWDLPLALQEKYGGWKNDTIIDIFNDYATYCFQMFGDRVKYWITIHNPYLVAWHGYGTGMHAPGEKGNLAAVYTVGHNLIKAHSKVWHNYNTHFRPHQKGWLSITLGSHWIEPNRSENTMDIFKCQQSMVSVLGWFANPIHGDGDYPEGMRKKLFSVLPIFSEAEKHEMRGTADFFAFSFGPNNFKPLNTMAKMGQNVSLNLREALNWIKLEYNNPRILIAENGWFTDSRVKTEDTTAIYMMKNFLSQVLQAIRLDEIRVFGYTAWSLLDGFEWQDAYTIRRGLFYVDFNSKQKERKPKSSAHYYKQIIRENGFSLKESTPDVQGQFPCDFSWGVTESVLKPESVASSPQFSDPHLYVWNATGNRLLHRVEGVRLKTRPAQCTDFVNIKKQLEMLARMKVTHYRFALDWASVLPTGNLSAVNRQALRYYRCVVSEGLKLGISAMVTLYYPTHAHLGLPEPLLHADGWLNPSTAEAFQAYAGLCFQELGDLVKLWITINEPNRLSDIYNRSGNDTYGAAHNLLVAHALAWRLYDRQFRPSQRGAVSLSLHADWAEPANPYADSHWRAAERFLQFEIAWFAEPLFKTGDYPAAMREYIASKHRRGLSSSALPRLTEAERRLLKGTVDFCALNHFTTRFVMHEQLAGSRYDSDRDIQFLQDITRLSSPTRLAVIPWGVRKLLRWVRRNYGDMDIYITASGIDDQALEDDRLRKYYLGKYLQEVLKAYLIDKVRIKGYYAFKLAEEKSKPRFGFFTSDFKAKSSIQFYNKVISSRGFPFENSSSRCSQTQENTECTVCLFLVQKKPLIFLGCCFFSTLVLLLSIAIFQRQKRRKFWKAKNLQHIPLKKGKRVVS
Assay: cell-based or functional assay
y means recorded % max activity of antagonism of FGF21 (pErk1/2, 293 HEK hKLB cells) is 90% or above; n means it is below 90%.

- APDVGSSDPLSMVGPSQGRSPSYAS [FGF21 25mer A1]: y
- PPDVGSSDPLSMVGPSQARSPSYAS [FGF21 25mer A18]: y

Is the recorded value of % max activity of antagonism of FGF21 (pErk1/2, 293 HEK hKLB cells) equal to or greater than 90% for this binder? PPDVGSSDPLSMVGPSQGRSPSYAA [FGF21 25mer A25] y

Is the recorded value of % max activity of antagonism of FGF21 (pErk1/2, 293 HEK hKLB cells) equal to or greater than 90% for this binder? PPDVGSSDPLSMVGPSQGRSASYAS [FGF21 25mer A21] n

Is the recorded value of % max activity of antagonism of FGF21 (pErk1/2, 293 HEK hKLB cells) equal to or greater than 90% for this binder? PPDVGSSDPLSMVGPSQGRAPSYAS [FGF21 25mer A20] n

Is the recorded value of % max activity of antagonism of FGF21 (pErk1/2, 293 HEK hKLB cells) equal to or greater than 90% for this binder? PADVGSSDPLSMVGPSQGRSPSYAS [FGF21 25mer A2] y

Is the recorded value of % max activity of antagonism of FGF21 (pErk1/2, 293 HEK hKLB cells) equal to or greater than 90% for this binder? PPDVGSSDPLSMVAPSQGRSPSYAS [FGF21 25mer A14] y
